Ref: patent US9796711B2

For each entry below, report its pEC50 value.
- Measured on: ΔF508-CFTR (Homo sapiens, UniProt P13569, DEL508-508)
- Construct: host or cells: CFBE41o-, doxycycline-inducible
- Sequence (P13569 with tags, fused parts or gaps DEL508-508): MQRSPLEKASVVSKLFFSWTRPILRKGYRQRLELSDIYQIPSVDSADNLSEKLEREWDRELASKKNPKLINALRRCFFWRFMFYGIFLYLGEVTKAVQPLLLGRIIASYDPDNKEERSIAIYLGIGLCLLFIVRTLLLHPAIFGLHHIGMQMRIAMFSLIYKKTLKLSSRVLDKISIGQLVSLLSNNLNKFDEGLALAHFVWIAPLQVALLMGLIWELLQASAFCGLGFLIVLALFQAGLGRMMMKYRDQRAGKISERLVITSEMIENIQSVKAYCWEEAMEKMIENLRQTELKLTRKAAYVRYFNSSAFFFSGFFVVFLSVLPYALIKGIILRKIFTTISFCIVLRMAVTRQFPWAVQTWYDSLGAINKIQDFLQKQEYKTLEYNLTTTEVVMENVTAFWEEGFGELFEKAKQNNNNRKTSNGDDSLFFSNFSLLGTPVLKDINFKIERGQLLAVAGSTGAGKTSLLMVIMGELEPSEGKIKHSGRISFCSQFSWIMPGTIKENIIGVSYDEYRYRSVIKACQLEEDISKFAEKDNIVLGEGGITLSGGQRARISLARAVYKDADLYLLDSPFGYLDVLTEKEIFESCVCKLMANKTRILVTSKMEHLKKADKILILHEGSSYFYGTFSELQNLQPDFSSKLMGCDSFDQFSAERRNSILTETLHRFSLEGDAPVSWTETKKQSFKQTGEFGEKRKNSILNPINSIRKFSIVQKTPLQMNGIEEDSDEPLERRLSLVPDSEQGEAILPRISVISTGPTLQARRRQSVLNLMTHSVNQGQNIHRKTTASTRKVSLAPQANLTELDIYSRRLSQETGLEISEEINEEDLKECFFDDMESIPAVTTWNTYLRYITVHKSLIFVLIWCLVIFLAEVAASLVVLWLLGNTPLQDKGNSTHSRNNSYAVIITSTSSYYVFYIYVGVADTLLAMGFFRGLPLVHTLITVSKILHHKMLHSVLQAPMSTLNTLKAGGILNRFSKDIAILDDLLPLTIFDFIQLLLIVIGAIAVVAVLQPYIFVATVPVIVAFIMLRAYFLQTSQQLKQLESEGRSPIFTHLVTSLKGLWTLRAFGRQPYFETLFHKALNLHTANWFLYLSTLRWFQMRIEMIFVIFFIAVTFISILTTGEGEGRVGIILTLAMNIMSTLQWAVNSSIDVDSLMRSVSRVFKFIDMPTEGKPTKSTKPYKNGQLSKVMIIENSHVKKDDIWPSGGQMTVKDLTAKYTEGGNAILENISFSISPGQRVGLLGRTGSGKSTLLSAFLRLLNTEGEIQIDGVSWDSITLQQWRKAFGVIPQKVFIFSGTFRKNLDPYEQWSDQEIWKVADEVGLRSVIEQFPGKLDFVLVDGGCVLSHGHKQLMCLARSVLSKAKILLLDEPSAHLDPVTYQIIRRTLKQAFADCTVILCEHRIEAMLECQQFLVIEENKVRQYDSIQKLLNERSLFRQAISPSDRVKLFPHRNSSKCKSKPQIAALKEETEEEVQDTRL
- Assay protocol: CFTR cell surface levels using HRP-tagged ΔF508-CFTR expressing CFBE cells, in the presence of a co-corrector
- Type: cell-based
- Assay context: HRP-tagged ΔF508-CFTR expressing CFBE cells, in the presence of 3 μM co-corrector; read-out: EC50
Interpret pEC50 as the negative base-10 log of the concentration measured in mol/L.

Prompt: I am curious: what pEC50 value has been reported for COCCOCC1(F)CCCN(c2cc(C(=O)O)nc3c2c(C2CCC2)nn3-c2ccccc2)C1 (stereo not shown) [compound 462] ?
Response: 6.50

Prompt: Any idea what its pEC50 is? The compound is CS(=O)(=O)N1CCC(F)(COc2cc(C(=O)O)nc3c2c(C2CCC2)nn3-c2ccccc2)CC1 [compound 626]
Response: 6.00

Prompt: I am curious: what pEC50 value has been reported for CC(C)OC1CN(c2cc(C(=O)O)nc3c2c(C2CCC2)nn3-c2ccccc2)C1 [compound 573] ?
Response: 6.52

Prompt: Name the recorded pEC50 for O=C(O)c1cc(CN2CCC(N3CCOCC3)CC2)c2c(C3CCC3)nn(-c3ccc(F)cc3)c2n1 [compound 893] .
Response: 5.48

Prompt: Please give the measured pEC50 for this compound: O=C(O)c1cc(N2CC3CC3C2)c2c(C3CCC3)nn(-c3ccccc3)c2n1 (stereo not shown) [compound 406]
Response: 6.19

Prompt: So what's the measured pEC50 for this one? O=C(O)c1cc(OCCN2CCCCCC2)c2c(C3CCC3)nn(-c3ccccc3)c2n1 [compound 643]
Response: 5.90

Prompt: Request the reported pEC50 associated with COC(=O)N1CCC(COc2cc(C(=O)O)nc3c2c(C(C)C)nn3-c2ccc(F)cc2)CC1 [compound 663]
Response: 7.04

Prompt: For CC(C)c1nn(-c2ccc(F)cc2)c2nc(C(=O)O)cc(N3CC[C@@H](O)[C@H](F)C3)c12 [compound 668] , what is its reported pEC50?
Response: 5.63

Prompt: Reported pEC50 for O=C(O)c1cc(N2CCN(CC(=O)N3CCCC3)CC2)c2c(C3CCC3)nn(-c3ccccc3)c2n1 [compound 472] : what is it?
Response: 5.86

Prompt: Record request: pEC50 value, item Cc1nn(-c2ccccc2)c2nc(C(=O)O)cc(-c3ccc(N4CCN(CCC(F)(F)F)CC4)cc3)c12 [compound 82]
Response: 6.01

Prompt: Can you look up the measured pEC50 of COC(C)(C)C1CCN(c2cc(C(=O)O)nc3c2c(C2CCC2)nn3-c2ccccc2)CC1 [compound 605] for me?
Response: 7.36

Prompt: Which pEC50 value belongs to O=C(O)c1cc(N2CCN(CC(=O)N3CCOCC3)CC2)c2c(C3CCC3)nn(-c3ccccc3)c2n1 [compound 474] ?
Response: 5.65

Prompt: Requested read-out: pEC50. Entry: CC(C)c1nn(-c2ccc(F)cc2)c2nc(C(=O)O)cc(N3CCC4(CC3)OCCO4)c12 [compound 782]
Response: 6.57

Prompt: I would be grateful if you could share the reported pEC50 for Cc1nn(-c2ccccc2)c2nc(C(=O)O)cc(OC[C@H](F)C3CCN(C)CC3)c12 [compound 380] .
Response: 6.02

Prompt: # input compound: O=C(O)c1cc(N2CCN(c3ccncc3)CC2)c2c(C3CCC3)nn(C3CCCCC3)c2n1 [compound 809] ; wanted: its pEC50
Response: 6.74

* * *

- Measured on: ΔF508-CFTR (Homo sapiens, UniProt P13569, DEL508-508)
- Construct: host or cells: CFBE41o-, doxycycline-inducible
- Assay protocol: CFTR cell surface levels using HRP-tagged ΔF508-CFTR expressing CFBE cells, in the presence of a co-corrector
- Type: cell-based
- Assay context: HRP-tagged ΔF508-CFTR expressing CFBE cells, in the presence of 3 μM co-corrector; read-out: EC50
Hi there, I'd appreciate the recorded EC50 for every entry that follows.
Give just the number in nM; leave the unit off.

Prompt: # EC50 lookup, item Cc1nn(-c2cccc(F)c2)c2nc(C(=O)O)cc(-c3ccc(N4CCOCC4)nc3)c12
Response: 999

Prompt: Recorded EC50 for O=C(O)c1cc(N2CC[C@@H](F)[C@H](O)C2)c2c(C3CCC3)nn(-c3ccccc3)c2n1 , please?
Response: 703

Prompt: Consider the molecule shown here: O=C(O)c1cc(N2CC[C@H](F)C2)c2c(C3CCC3)nn(-c3ccccc3)c2n1 What is its recorded EC50?
Response: 1030

Prompt: I would be grateful if you could share the reported EC50 for Cc1nn(-c2ccccc2)c2nc(C(=O)O)cc(OCC3CCCC3(F)F)c12 (centres unmarked) .
Response: 1290

Prompt: // lookup EC50 for Cc1nn(-c2ccccc2)c2nc(C(=O)O)cc(-c3ccc(N(C)C4COC4)cc3)c12
Response: 941

* * *

- Measured on: ΔF508-CFTR (Homo sapiens, UniProt P13569, DEL508-508)
- Construct: host or cells: CFBE41o-, doxycycline-inducible
- Assay protocol: CFTR cell surface levels using HRP-tagged ΔF508-CFTR expressing CFBE cells, intrinsic corrector capacity
- Type: cell-based
- Assay context: HRP-tagged ΔF508-CFTR CFBE41o- cells, compounds alone (intrinsic corrector capacity), 20 hours at 33° C.; positive control 3 μM corrector
Measured endpoint: % Activation (%)
Respond with the bare value in %.

Prompt: What % Activation value was documented for this molecule, CC(C)c1nn(C2CCCOC2)c2nc(C(=O)O)cc(-c3ccc(N4CCOCC4)cc3)c12 (stereo not drawn) ?
Response: 106.65

Prompt: State the recorded % Activation for this entry: Cc1nn(-c2ccccc2)c2nc(C(=O)O)cc(O[C@@H]3CCN(C)C3)c12
Response: 12.64

Prompt: Could you share which % Activation value was measured for Cc1nn(-c2ccccc2)c2nc(C(=O)O)cc(-c3ccc(N4CCC5(CC4)COC5)cc3)c12 ?
Response: 153.9

Prompt: Look up % Activation for this molecule: Cc1cccc(-n2nc(C(C)C)c3c(N4CCC5(CC4)COC5)cc(C(=O)O)nc32)c1
Response: 136.8

Prompt: Given the molecule CC(C)c1nn(C2CCCCC2)c2nc(C(=O)O)cc(-c3cnc(N4CCC(C#N)CC4)nc3)c12 , what is its reported % Activation?
Response: 206.8

Prompt: Which % Activation value belongs to COCCN(CCOC)c1ccc(-c2cc(C(=O)O)nc3c2c(C(C)C)nn3C2CCCCC2)cn1 ?
Response: 173.8

Prompt: Given the entry CC(C)c1nn(-c2ccnc(Cl)c2)c2nc(C(=O)O)cc(-c3ccc(N4CCOCC4)cc3)c12 , report its measured % Activation.
Response: 110.52

Prompt: # input molecule: Cc1nn(C2CCCCC2)c2nc(C(=O)O)cc(-c3cnc(N4CCOCC4)nc3)c12 ; wanted: its % Activation
Response: 103.02

Prompt: Give its % Activation value. Item: COCCC1CCN(c2cc(C(=O)O)nc3c2c(C(C)C)nn3-c2cccc(C)c2)CC1
Response: 297.15

* * *

- Measured on: ΔF508-CFTR (Homo sapiens, UniProt P13569, DEL508-508)
- Construct: host or cells: CFBE41o-, doxycycline-inducible
- Assay protocol: CFTR cell surface levels using HRP-tagged ΔF508-CFTR expressing CFBE cells, in the presence of a co-corrector
- Type: cell-based
- Assay context: HRP-tagged ΔF508-CFTR expressing CFBE cells, in the presence of 3 μM co-corrector
- Text: Measuring CFTR Cell Surface Levels Using HRP-Tagged AF508-CFTR Expressing CFBE Cells The HRP-tagged AF508-CFTR cell assay measures the expression of CFTR-ΔF508 at the plasma membrane. […] When HRP-tagged AF508-CFTR is present at the plasma membrane, the HRP enzyme activity can be measured. The amount of CFTR-ΔF508 that can be rescued to the plasma membrane is correlated with the amount of functional enzyme that can be measured. […]
Measured endpoint: % Activation
Field note: include the unit after the figure.

Prompt: # % Activation lookup, item COCc1nn(-c2ccccc2)c2nc(C(=O)O)cc(-c3ccc(N4CCOCC4)cc3)c12
Response: 311.75%

Prompt: May I ask what % Activation has been recorded for CC(C)c1nn(-c2ccc(F)cc2F)c2nc(C(=O)O)cc(-c3cnc(N4CCC(C#N)CC4)nc3)c12 ?
Response: 389.75%

Prompt: Need % Activation, item O=C(O)c1cc(OCCCN2CCOCC2)c2c(C3CCC3)nn(-c3ccccc3)c2n1
Response: 316.5%

Prompt: Look up % Activation for this compound: O=C(O)c1cc(N2CCN(C3CCC3)CC2)c2c(C3CCC3)nn(-c3ccccc3)c2n1
Response: 377.1%

Prompt: Entry O=C(O)c1cc(N2CCC(CN3CC[C@H](F)C3)CC2)c2c(C3CCC3)nn(-c3ccccc3)c2n1 : reported % Activation = ?
Response: 443.15%
